# System: Cystic fibrosis transmembrane conductance regulator (Homo sapiens), P13569 [F508del]
# Sequence (P13569 as listed by the source): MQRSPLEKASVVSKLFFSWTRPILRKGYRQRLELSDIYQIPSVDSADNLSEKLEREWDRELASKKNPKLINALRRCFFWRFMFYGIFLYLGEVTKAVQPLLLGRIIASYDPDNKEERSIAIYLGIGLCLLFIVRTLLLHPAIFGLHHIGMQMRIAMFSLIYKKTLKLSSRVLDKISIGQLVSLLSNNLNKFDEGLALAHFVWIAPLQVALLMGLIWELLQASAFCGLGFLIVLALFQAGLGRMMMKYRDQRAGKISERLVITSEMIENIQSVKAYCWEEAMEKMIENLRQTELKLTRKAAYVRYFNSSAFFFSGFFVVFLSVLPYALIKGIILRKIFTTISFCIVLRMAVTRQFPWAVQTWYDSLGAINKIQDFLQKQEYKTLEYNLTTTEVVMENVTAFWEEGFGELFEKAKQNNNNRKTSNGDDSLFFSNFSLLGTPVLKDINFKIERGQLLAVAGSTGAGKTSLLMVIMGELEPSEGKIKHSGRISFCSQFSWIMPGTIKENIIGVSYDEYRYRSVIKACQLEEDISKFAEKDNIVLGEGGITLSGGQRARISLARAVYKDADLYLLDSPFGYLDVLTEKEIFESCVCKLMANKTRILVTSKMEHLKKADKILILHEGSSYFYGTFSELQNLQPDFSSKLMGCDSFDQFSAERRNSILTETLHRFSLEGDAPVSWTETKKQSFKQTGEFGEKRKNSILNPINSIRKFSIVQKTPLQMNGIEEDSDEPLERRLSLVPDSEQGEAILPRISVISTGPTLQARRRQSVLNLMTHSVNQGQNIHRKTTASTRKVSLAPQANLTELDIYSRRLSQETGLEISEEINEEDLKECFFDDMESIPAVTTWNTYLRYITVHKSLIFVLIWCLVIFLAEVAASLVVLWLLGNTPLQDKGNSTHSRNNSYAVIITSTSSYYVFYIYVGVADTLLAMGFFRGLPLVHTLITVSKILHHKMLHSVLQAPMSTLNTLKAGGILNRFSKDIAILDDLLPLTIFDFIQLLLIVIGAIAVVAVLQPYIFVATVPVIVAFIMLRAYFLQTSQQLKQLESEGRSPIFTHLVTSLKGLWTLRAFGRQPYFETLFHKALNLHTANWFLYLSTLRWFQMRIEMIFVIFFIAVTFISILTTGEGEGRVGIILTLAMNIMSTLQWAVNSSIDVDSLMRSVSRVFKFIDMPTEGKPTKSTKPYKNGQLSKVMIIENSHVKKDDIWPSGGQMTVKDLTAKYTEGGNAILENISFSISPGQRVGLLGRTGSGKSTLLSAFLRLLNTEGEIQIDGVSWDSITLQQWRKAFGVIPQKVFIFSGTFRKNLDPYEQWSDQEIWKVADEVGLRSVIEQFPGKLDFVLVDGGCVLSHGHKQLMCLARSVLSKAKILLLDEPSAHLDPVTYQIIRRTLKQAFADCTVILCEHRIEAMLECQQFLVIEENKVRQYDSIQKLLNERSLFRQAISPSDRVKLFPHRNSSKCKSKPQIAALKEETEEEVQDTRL
# Protocol Summary: Corrector activity at HRP-fused CFTR F508del mutant (unknown origin) expressed in human CFBE41o cells assessed as increase in matured protein levels at cell surface after 18 to 24 hrs by luminescence assay relative to 3-[(2R,4R)-4-({[1-(2,2-Difluoro-1,3-benzodioxol-5-yl)cyclopropyl]-carbonyl}amino)-7-methoxy-3,4-dihydro-2H-chromen-2-yl]benzoic acid
# Assay type: cell-based
The label depends only on max activation: TRUE if it is at least 90%, FALSE if it is smaller.

These solved cases illustrate the format of a correct answer.
compound="COc1ccc2c(c1)O[C@@H](c1ccc(OC)c(OC)c1)C[C@H]2NC(=O)C1(c2ccc3c(c2)OC(F)(F)O3)CC1 [A-1596586]" class_name=TRUE
compound=CC1(C)C[C@H](NC(=O)C2(c3ccc4c(c3)OC(F)(F)O4)CC2)c2cc(F)ccc2O1 class_name=FALSE
compound=COc1ccc2c(c1)O[C@@H](c1cccc(C(=O)O)c1)C[C@H]2NC(=O)C1(c2ccc3c(c2)OC(F)(F)O3)CC1 class_name=TRUE
compound="O=C(NC1CC(c2ccc(F)cc2)Oc2ccccc21)C1(c2ccc3c(c2)OC(F)(F)O3)CC1 (stereo not given)" class_name=TRUE
compound="O=C(NC1CC(c2ccccc2)Oc2ccccc21)C1(c2ccc3c(c2)OC(F)(F)O3)CC1 (stereo not given)" class_name=TRUE

Is reported max activation greater than or equal to 90% here: O=C(NC1CC(c2ccccc2Cl)Oc2ccccc21)C1(c2ccc3c(c2)OC(F)(F)O3)CC1 (stereo not given) FALSE

Item O=C(NC1C[C@H](c2cccc(CO)c2)Oc2ccccc21)C1(c2ccc3c(c2)OC(F)(F)O3)CC1 (stereo not given in full) with max activation of 90% or above? TRUE

Is reported max activation greater than or equal to 90% here: COc1ccc2c(c1)OC(c1ccccc1)CC2NC(=O)C1(c2ccc3c(c2)OC(F)(F)O3)CC1 (stereo not given) TRUE

Dear colleague, could you confirm whether CC1(C)C[C@@H](NC(=O)C2(c3ccc4c(c3)OC(F)(F)O4)CC2)c2ccc(F)cc2O1 has max activation at or above 90%? TRUE

# check: max activation of COc1ccc2c(c1)O[C@H](c1ccc(OC)c(OC)c1)C[C@@H]2NC(=O)C1(c2ccc3c(c2)OC(F)(F)O3)CC1 [A-1596584] is greater than or equal to 90% FALSE

Please indicate if the recorded max activation for O=C(N[C@@H]1CC(CF)(CF)Oc2cc(F)ccc21)C1(c2ccc3c(c2)OC(F)(F)O3)CC1 meets or exceeds 90%. TRUE

Is it the case that COc1ccc2c(c1)OC(c1ccc(OC)c(OC)c1)CC2NC(=O)C1(c2ccc3c(c2)OC(F)(F)O3)CC1 (stereo not given) has max activation reaching or exceeding 90%? TRUE

Form field: max activation at least 90%? Entry: CC1(C)C[C@@H](NC(=O)C2(c3ccc4c(c3)OC(F)(F)O4)CC2)c2ccc(F)c(Cl)c2O1 FALSE

Threshold query (max activation >= 90%) on O=C(NC1CC(c2cccc(Cl)c2)Oc2ccccc21)C1(c2ccc3c(c2)OC(F)(F)O3)CC1 (stereo not given) FALSE

Is reported max activation greater than or equal to 90% here: O=C(NC1CC(c2ccc(Cl)cc2)Oc2ccccc21)C1(c2ccc3c(c2)OC(F)(F)O3)CC1 (stereo not given) TRUE

----------
# Measurement Target: Cystic fibrosis transmembrane conductance regulator (Homo sapiens, UniProt P13569, F508DEL)
# Sequence (P13569 as listed by the source): as above
# Protocol Summary: Corrector activity at CFTR F508del/F508del mutant in primary HBE cells assessed as increase in chloride ion current across apical membrane measured 18 to 24 hrs post compound treatment on basolateral side of cells in presence of channel potentiator GLPG1837 by trans-epithelial current clamp method
pEC50: −log10 of the molar value.
We use 7 as the dividing line for pEC50: on or above the line is YES, below is NO.

Consider the following illustrative entries.
molecule=COc1ccc2c(c1)O[C@@H](c1ccc(OC)c(OC)c1)C[C@H]2NC(=O)C1(c2ccc3c(c2)OC(F)(F)O3)CC1 class_name=YES
molecule=O=C(O)c1ccc([C@H]2C[C@@H](NC(=O)C3(c4ccc5c(c4)OC(F)(F)O5)CC3)c3ccc(OC(F)F)cc3O2)cc1 class_name=YES
molecule=COc1ccc2c(c1)O[C@@H](c1cccc(C(=O)O)c1)C[C@H]2NC(=O)C1(c2ccc3c(c2)OC(F)(F)O3)CC1 class_name=NO

Is pEC50 at least 7? Consider COc1ccc2c(c1)[C@H](NC(=O)C1(c3ccc4c(c3)OC(F)(F)O4)CC1)C[C@H](c1cccc(C(=O)O)c1)O2 NO

Hello, I need to know if COc1ccc2c(c1)O[C@@H](c1ccc(C(=O)O)cc1)C[C@H]2NC(=O)C1(c2ccc3c(c2)OC(F)(F)O3)CC1 has measured pEC50 not below 7. Thanks! YES

Confirm if pEC50 reported for the molecule O=C(NC1C[C@H](c2cccc(CO)c2)Oc2ccccc21)C1(c2ccc3c(c2)OC(F)(F)O3)CC1 (some centres undefined) is 7 or above. NO

----------
# Protocol Summary: Clearance in dog at 2 mg/kg, iv
# Assay type: ADME, organism-based, Canis lupus familiaris
# Run Parameters: in vivo
Quantity Kind: clearance (mL/min/kg)
Return type: number; implicit unit mL/min/kg.

Lab book: clearance of O=C(O)c1ccc([C@H]2C[C@@H](NC(=O)C3(c4ccc5c(c4)OC(F)(F)O5)CC3)c3ccc(OC(F)F)cc3O2)cc1 noted as 13.8

----------
# System: Cystic fibrosis transmembrane conductance regulator (Homo sapiens), P13569 [F508del]
# Protocol Summary: Corrector activity at CFTR F508del/F508del mutant in primary HBE cells assessed as increase in chloride ion current across apical membrane measured 18 to 24 hrs post compound treatment on basolateral side of cells in presence of channel potentiator GLPG1837 by trans-epithelial current clamp method relative to 3-[(2R,4R)-4-({[1-(2,2-Difluoro-1,3-benzodioxol-5-yl)cyclopropyl]-carbonyl}amino)-7-methoxy-3,4-dihydro-2H-chromen-2-yl]benzoic acid
# Format: cell-based
Catalogue of max activation values
Give a bare numeral; the unit % is implied.

The cases that follow already have their max activation on record.
compound="O=C(O)c1ccc([C@H]2C[C@@H](NC(=O)C3(c4ccc5c(c4)OC(F)(F)O5)CC3)c3ccc(OC(F)F)cc3O2)cc1 [GALICAFTOR]" experimental_result=87
compound=O=C(O)c1cccc([C@H]2C[C@@H](NC(=O)C3(c4ccc5c(c4)OC(F)(F)O5)CC3)c3ccc(OC(F)F)cc3O2)c1 experimental_result=117
compound=O=C(O)c1cccc([C@H]2C[C@@H](NC(=O)C3(c4ccc5c(c4)OC(F)(F)O5)CC3)c3ccc(C(F)(F)F)cc3O2)c1 experimental_result=97
compound=COc1ccc2c(c1)[C@H](NC(=O)C1(c3ccc4c(c3)OC(F)(F)O4)CC1)C[C@H](c1cccc(C(=O)O)c1)O2 experimental_result=111
compound=COc1ccc2c(c1)O[C@@H](c1cccc(C(=O)O)c1)C[C@H]2NC(=O)C1(c2ccc3c(c2)OC(F)(F)O3)CC1 experimental_result=95
compound="O=C(NC1C[C@H](c2cccc(CO)c2)Oc2ccccc21)C1(c2ccc3c(c2)OC(F)(F)O3)CC1 (stereo partly drawn)" experimental_result=103
compound=COc1ccc2c(c1)O[C@@H](c1ccc(C(=O)O)cc1)C[C@H]2NC(=O)C1(c2ccc3c(c2)OC(F)(F)O3)CC1 experimental_result=94

Lab note: next compound to report on.
// assay Cystic fibrosis transmembrane conductance regulator (Homo sapiens), P13569 [F508del], entry COc1ccc2c(c1)O[C@@H](c1ccc(OC)c(OC)c1)C[C@H]2NC(=O)C1(c2ccc3c(c2)OC(F)(F)O3)CC1 [A-1596586] , max activation value = 117

----------
# Protocol Summary: Lipophilicity, log D of the compound by HPLC method
# Format: physicochemical
Measured logD accompanies every entry in the list below.
API doc: respond with a numeric literal and nothing else, no unit.

Observe how each entry below is paired with its result.
compound="O=C(NC1CC(c2cccc(Cl)c2)Oc2ccccc21)C1(c2ccc3c(c2)OC(F)(F)O3)CC1 (stereo not drawn)" experimental_result=5.6
compound=COc1ccc2c(c1)O[C@@H](c1cccc(C(=O)O)c1)C[C@H]2NC(=O)C1(c2ccc3c(c2)OC(F)(F)O3)CC1 experimental_result=3.84

logD recorded for this compound, O=C(O)c1cccc([C@H]2C[C@@H](NC(=O)C3(c4ccc5c(c4)OC(F)(F)O5)CC3)c3ccc(F)cc3O2)c1 , is 4.03

compound O=C(NC1CC(c2ccccc2Cl)Oc2ccccc21)C1(c2ccc3c(c2)OC(F)(F)O3)CC1 (stereo not drawn) , logD observed: 5.6

----------
Each entry below carries its recorded Papp.
# Protocol Summary: Permeability of the compound by PAMPA
# Assay type: physicochemical
# Run Parameters: read-out: permeability
Lab book: enter the figure in ×10⁻⁶ cm/s, no units written.

compound COc1ccc2c(c1)O[C@@H](c1cccc(C(=O)O)c1)C[C@H]2NC(=O)C1(c2ccc3c(c2)OC(F)(F)O3)CC1 , Papp observed: 14.3

// Papp lookup, compound = O=C(NC1C[C@H](c2cccc(CO)c2)Oc2ccccc21)C1(c2ccc3c(c2)OC(F)(F)O3)CC1 (some centres undefined) , result: 1.15

Lab note: COc1ccc2c(c1)O[C@@H](c1ccc(OC)c(OC)c1)C[C@H]2NC(=O)C1(c2ccc3c(c2)OC(F)(F)O3)CC1 gave Papp of 0.56

Entry COc1ccc2c(c1)O[C@H](c1ccc(OC)c(OC)c1)C[C@@H]2NC(=O)C1(c2ccc3c(c2)OC(F)(F)O3)CC1 ; Papp = 0.3
